Listed here: items and their measured clearance.
- System: Liver microsomes
- assay_protocol: Metabolic stability in human liver microsomes assessed as clearance
- Type: ADME, Microsome
- measurement_context: microsomes

{"record_smiles": "CCCN1C(=O)c2ccccc2[C@@H](C(=O)O)[C@@H]1c1ccc(Oc2cc(C)cc(C)c2)cc1", "clearance": "21 µL/min/mg"}
{"record_smiles": "CCCN1C(=O)c2ccccc2[C@@H](C(=O)O)[C@@H]1c1ccc(OC)cc1", "clearance": "< 8 µL/min/mg"}
{"record_smiles": "CCCN1C(=O)c2ccccc2[C@@H](C(=O)O)[C@@H]1c1ccc(O[C@H]2CC[C@@H](C)CC2)cc1", "clearance": "< 12 µL/min/mg"}

// below: clearance requested for another compound
## Task What value of clearance has been reported for the following compound? "CCCN1C(=O)c2ccccc2[C@@H](C(=O)O)[C@@H]1c1ccc(Oc2ccc(C(F)(F)F)cn2)cc1"
## Result < 8 µL/min/mg

###

- assay_protocol: Permeability from basolateral to apical side of the human Caco-2 membrane
- Type: ADME, cell-based
- measurement_context: read-out: permeability
property: Papp B→A (×10⁻⁶ cm/s)
Give a bare numeral; the unit ×10⁻⁶ cm/s is implied.

## Task What value of Papp B→A has been reported for the following molecule? "CC[C@H](C)CN1C(=O)c2ccccc2[C@@H](C(=O)O)[C@@H]1c1cc2ccccc2o1"
## Result 18.7

###

- assay_protocol: Metabolic stability in dog liver microsomes assessed as clearance
- Type: ADME, Canis lupus familiaris, Microsome
property: microsomal CLint (µL/min/mg)
Give a bare numeral; the unit µL/min/mg is implied.

## Task What value of microsomal CLint has been reported for the following molecule? "CCCN1C(=O)c2ccccc2[C@@H](C(=O)O)[C@@H]1c1ccc(Oc2cc(Cl)cc(Cl)c2)cc1"
## Result 2.99

###

- System: Rattus norvegicus
- assay_protocol: Clearance in iv dosed bile duct cannulated rat
- Type: ADME, organism-based
- measurement_context: in vivo
property: clearance (mL/min/kg)
Give a bare numeral; the unit mL/min/kg is implied.

## Task What value of clearance has been reported for the following compound? "CCCN1C(=O)c2ccccc2[C@@H](C(=O)O)[C@@H]1c1ccc(O[C@H]2CC[C@@H](C)CC2)cc1"
## Result 84.5

###

- Tested on: Liver microsomes
- assay_protocol: Metabolic stability in rat liver microsomes assessed as clearance
- Type: ADME, Microsome
Please note: rule met applies when clearance is 50 µL/min/mg or greater, and rule not met applies otherwise.

{"record_smiles": "CCC(CC)CN1C(=O)c2ccccc2[C@@H](C(=O)O)[C@@H]1c1ccc(Cl)c(Cl)c1", "group": "rule not met"}

## Task Could you verify whether the entry "CC[C@H](C)CN1C(=O)c2ccccc2[C@@H](C(=O)O)[C@@H]1c1cc2ccccc2o1" shows clearance of no less than 50 µL/min/mg?
## Result rule not met

## Task Could you verify whether the entry "CCCN1C(=O)c2ccccc2[C@@H](C(=O)O)[C@@H]1c1ccc(OCc2ccccc2)cc1" shows clearance of no less than 50 µL/min/mg?
## Result rule not met

## Task Could you verify whether the entry "CCCN1C(=O)c2ccccc2[C@@H](C(=O)O)[C@@H]1c1cc2ccccc2o1" shows clearance of no less than 50 µL/min/mg?
## Result rule not met

## Task Could you verify whether the entry "CN1C(=O)c2ccccc2[C@@H](C(=O)O)[C@@H]1c1ccc(Oc2ccccc2)cc1" shows clearance of no less than 50 µL/min/mg?
## Result rule not met

## Task Could you verify whether the entry "CC[C@H](C)CN1C(=O)c2ccccc2[C@@H](C(=O)O)[C@@H]1c1ccc(Cl)c(Cl)c1" shows clearance of no less than 50 µL/min/mg?
## Result rule not met
